Below: compounds with Ki recorded for 5-hydroxytryptamine receptor 5A (Homo sapiens) in separate published works.

Look up Ki with 5-hydroxytryptamine receptor 5A (Homo sapiens) for this compound: NC(N)=NC(=O)c1ccc2c(c1)C(c1ccc(Oc3ccccc3)cc1)=CCC2
30 to 300 nM

Look up Ki with 5-hydroxytryptamine receptor 5A (Homo sapiens) for this compound: COc1ccccc1CN/C(N)=N/C(=O)c1ccc2c3ccccc3n(C3CCOCC3)c2c1
≤ 50 nM

Look up Ki with 5-hydroxytryptamine receptor 5A (Homo sapiens) for this compound: NC(N)=NC(=O)c1ccc2scc(-c3ccccc3O)c2c1
0.3 to 3 nM

Look up Ki with 5-hydroxytryptamine receptor 5A (Homo sapiens) for this compound: COc1ccncc1-c1cccc2ccc(C(=O)N=C(N)N)cc12
30 to 300 nM

Look up Ki with 5-hydroxytryptamine receptor 5A (Homo sapiens) for this compound: CC1=C(c2ccc(Cl)cc2Cl)c2cc(C(=O)N=C(N)N)ccc2CC1
0.3 to 3 nM

Look up Ki with 5-hydroxytryptamine receptor 5A (Homo sapiens) for this compound: COc1cccc(Cl)c1CNC(=N)Nc1nc(-c2ccccc2)cs1
< 50 nM

Look up Ki with 5-hydroxytryptamine receptor 5A (Homo sapiens) for this compound: NC(N)=NC(=O)c1ccc2c(c1)C(c1ccc(C(F)(F)F)nc1)=CCC2
30 to 300 nM

Look up Ki with 5-hydroxytryptamine receptor 5A (Homo sapiens) for this compound: NC(N)=NC(=O)c1ccc2cccc(-c3cccc(F)c3O)c2c1
0.3 to 3 nM

Look up Ki with 5-hydroxytryptamine receptor 5A (Homo sapiens) for this compound: NC(N)=NC(=O)c1ccc2c(c1)C(c1cncc(Cl)c1)=CCC2
30 to 300 nM
